ASSAY_INFO: Pharmacokinetic studies in Beagle dogs after oral administration of SNAC-based tablets
Assay type: in vivo
ASSAY_SETUP: male, Beagle, dog, in vivo, po, Tmax (hr)
Starred links: 1 amine or outer side, 2 acyl side, 3 side chain; linkers in the order of their positions; H or OH if unused. Non-standard residues stand in square brackets, D forms with d. Groups on a side chain read outwards from the residue. *: point of attachment. C20 diacid = O=C(O)CCCCCCCCCCCCCCCCCCC(=O)*; C18 diacid = O=C(O)CCCCCCCCCCCCCCCCC(=O)*; C16 diacid = O=C(O)CCCCCCCCCCCCCCC(=O)*; γGlu = O=C(O)[C@H](CCC(=O)[*:2])N[*:1]; εLys = N[C@@H](CCCCN[*:1])C(=O)[*:2]; Trx = NC[C@H]1CC[C@H](C(=O)O)CC1; AEEA = NCCOCCOCC(=O)O; Aib = CC(C)(N)C(=O)O
OBSERVABLE: Tmax
Please provide the amount together with its unit, number first.

These solved cases illustrate the format of a correct answer.
1) H-H[Aib]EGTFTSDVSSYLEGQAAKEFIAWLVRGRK([εLys-AEEA-AEEA-γGlu-C18 diacid])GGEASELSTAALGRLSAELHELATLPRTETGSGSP-NH2 [Compound 0045] :: 1.3 h
2) H-H[Aib]EGTFTSDVSK([AEEA-AEEA-γGlu-C16 diacid])YLEEQAARK([AEEA-AEEA-γGlu-C16 diacid])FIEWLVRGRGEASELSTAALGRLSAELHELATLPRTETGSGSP-NH2 [Compound 0577] :: 1.3 h
3) H-H[Aib]EGTFTSDVSK([AEEA-AEEA-γGlu-C18 diacid])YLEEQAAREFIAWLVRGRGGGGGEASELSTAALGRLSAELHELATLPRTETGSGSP-NH2 [Compound 0640] :: 1.5 h

Please give Tmax, item by item, for the list that follows.
1. H-H[Aib]EGTFTSDVSK([AEEA-AEEA-γGlu-C16 diacid])YLEEQAARK([AEEA-AEEA-γGlu-C16 diacid])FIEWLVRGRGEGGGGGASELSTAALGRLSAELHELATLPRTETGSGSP-NH2 [Compound 0576]
2. H-H[Aib]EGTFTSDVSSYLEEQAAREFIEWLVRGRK([AEEA-AEEA-γGlu-Trx-C20 diacid])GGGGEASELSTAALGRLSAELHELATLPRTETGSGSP-NH2 [Compound 0503]
3. H-H[Aib]EGTFTSDVSRYLEEQAAREFIEWLVRGRK([AEEA-AEEA-γGlu-Trx-C20 diacid])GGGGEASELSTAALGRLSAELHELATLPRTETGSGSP-NH2 [Compound 0511]

1. 1.3 h
2. 4 h
3. 2 h
